target: HIV-1 Env of pseudovirus CNE52 (HIV-1); test: cell-based or functional assay
Please respond with reported neutralization IC50 for every item in the list.
Give bare numbers, in µg/mL.

| binder | attribute-measured | observed-result |
| --- | --- | --- |
| MS-80 (antibody, V domains shown) VH: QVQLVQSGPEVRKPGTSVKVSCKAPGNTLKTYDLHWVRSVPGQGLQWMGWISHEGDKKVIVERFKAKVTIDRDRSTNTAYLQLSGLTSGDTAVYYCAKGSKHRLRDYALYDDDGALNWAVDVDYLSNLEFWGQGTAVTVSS VL: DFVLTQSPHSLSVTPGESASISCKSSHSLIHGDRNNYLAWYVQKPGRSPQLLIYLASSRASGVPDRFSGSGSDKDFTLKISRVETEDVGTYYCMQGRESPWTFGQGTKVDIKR | neutralization IC50 | 5.25 |

// fetch neutralization IC50 given entry MS-91 (antibody, V domains shown) VH: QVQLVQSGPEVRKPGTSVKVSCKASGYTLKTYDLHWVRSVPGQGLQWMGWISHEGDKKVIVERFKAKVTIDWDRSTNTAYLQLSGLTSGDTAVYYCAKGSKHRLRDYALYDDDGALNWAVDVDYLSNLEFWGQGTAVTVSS VL: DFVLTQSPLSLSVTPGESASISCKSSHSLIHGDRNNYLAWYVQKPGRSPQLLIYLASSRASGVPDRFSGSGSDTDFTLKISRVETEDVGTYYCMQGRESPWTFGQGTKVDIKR 1.41
